// provenance: the supplement of paper PMC10567573

B1: HESX1 (parent)
chain: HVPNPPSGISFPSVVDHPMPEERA

- Variants of: B1
- Measurement notes: protein stability index of a GFP-peptide fusion (GPS, HEK-293T) (PSI 1-6); higher = more stable;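 also: lentivirally expressed fusions sorted by FACS into six bins by GFP to DsRed ratio, PSI derived from sequencing read proportions per bin multiplied by bin number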
- Assay context: c terminus: a fixed tail appended
Mark 1 (yes) for reported protein stability index of 3 or greater; mark 0 (no) for anything smaller.

// known answers, use as guide
HVPNPPSGIKFPSVVDHPMPEERA [S10K] ... 0 (no)
HVPNPPSGISFPSVVTHPMPEERA [D16T] ... 0 (no)
AVPNPPSGISFPSVVDHPMPEERA [H1A] ... 1 (yes)
HVPNPPSGISFPSVNDHPMPEERA [V15N] ... 1 (yes)

Shift focus to the following entry.
**Q:** Would you say HVPDPPSGISFPSVVDHPMPEERA [N4D] shows protein stability index at minimum 3?
**A:** 1 (yes)
